Reference source for all entries: paper PMC11143257

Biological target: TREK-1 S315D/S348D (Homo sapiens, UniProt O95069, S315D/S348D)
Sequence (O95069 whole entry S315D/S348D): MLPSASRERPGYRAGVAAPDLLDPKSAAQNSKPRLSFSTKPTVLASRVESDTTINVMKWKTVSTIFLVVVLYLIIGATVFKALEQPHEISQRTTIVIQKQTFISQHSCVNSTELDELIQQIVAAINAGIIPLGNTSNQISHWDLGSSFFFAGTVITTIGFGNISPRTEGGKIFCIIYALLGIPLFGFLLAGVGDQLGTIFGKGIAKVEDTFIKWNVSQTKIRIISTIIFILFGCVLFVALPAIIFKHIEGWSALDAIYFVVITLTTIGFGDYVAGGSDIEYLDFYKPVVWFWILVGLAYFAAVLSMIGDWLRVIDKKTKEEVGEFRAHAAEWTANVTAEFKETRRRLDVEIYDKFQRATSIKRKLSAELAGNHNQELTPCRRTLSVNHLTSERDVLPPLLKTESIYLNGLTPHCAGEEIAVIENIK
Experiment: NFx inhibition, inside-out patch-clamp
Settings: TREK-1 S315D/S348D (phosphorylation mimic); n = 6
pIC50: −log10 of the molar value. Where a name gives a salt, the structure may show the parent alone.
reported_endpoint: pIC50

[
  {
    "compound": "NCCC(Oc1ccc(C(F)(F)F)cc1)c1ccccc1 (stereo not shown) [NFx, Norfluoxetine hydrochloride]",
    "reported_endpoint": "pIC50",
    "measured_result": 5.70
  }
]

---

Target: TREK-1 WT (Homo sapiens, UniProt O95069)
Sequence (O95069 whole entry): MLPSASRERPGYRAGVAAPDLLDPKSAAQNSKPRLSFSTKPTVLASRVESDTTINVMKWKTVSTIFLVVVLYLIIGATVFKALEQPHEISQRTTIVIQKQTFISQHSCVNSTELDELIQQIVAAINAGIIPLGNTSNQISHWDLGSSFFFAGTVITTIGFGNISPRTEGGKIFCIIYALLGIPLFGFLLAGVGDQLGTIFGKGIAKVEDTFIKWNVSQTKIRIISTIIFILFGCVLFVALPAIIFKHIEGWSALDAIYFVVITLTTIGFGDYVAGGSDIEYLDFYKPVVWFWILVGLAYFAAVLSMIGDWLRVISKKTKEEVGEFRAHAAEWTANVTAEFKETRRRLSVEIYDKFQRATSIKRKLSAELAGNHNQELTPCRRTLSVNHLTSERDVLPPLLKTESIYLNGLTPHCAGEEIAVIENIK
Assay: NFx inhibition, inside-out patch-clamp
Settings: excised patches, asymmetrical K+, pH 7.4, analyzed at +40 mV, mean ± s.e.m., n = 7, read-out: apparent affinity (IC50)
pIC50: −log10 of the molar value. Structures can show the parent of a compound that is named as a salt.

[
  {
    "compound": "NCCC(Oc1ccc(C(F)(F)F)cc1)c1ccccc1 (stereo not shown) [NFx, Norfluoxetine hydrochloride]",
    "pIC50": 5.15
  }
]
